B1: TPR t1 (parent)
chain: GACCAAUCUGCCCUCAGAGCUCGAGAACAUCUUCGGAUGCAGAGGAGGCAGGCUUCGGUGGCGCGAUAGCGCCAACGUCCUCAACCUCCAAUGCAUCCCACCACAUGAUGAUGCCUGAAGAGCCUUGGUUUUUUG

# Variants of: B1
# ASSAY_DETAILS: polymerase ribozyme fitness, log enrichment relative to wild type (log ratio); higher = more active; in vitro selection for triplet polymerase activity
Group membership follows polymerase ribozyme fitness (log ratio) per the scheme low band: < -4; middle band: ≥ -4 and < -1; high band: ≥ -1

mutation_name="C13G C56G G69C C89A G117U" group="low band"
mutation_name="U9A C56G" group="high band"
mutation_name="C53G G61C" group="middle band"
mutation_name="C34A G69U" group="high band"
mutation_name="G77C U125A" group="high band"
mutation_name="G10U G48U G93A C123G" group="high band"
mutation_name="U38G C49U C80G" group="low band"
mutation_name="G36A A43C" group="middle band"
mutation_name="C13A U96A" group="middle band"
mutation_name="G23U C31G C102G C124A" group="low band"
mutation_name="C3U G93C" group="middle band"
mutation_name="C13A C114U" group="middle band"
mutation_name="G39A C70G" group="middle band"
